# target: human ether-à-go-go-related gene (hERG) potassium channel (human, UniProt Q12809);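 note: peak tail current of the secondary pulse compared with the same well before compound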
# Sequence (Q12809 whole entry, looked up): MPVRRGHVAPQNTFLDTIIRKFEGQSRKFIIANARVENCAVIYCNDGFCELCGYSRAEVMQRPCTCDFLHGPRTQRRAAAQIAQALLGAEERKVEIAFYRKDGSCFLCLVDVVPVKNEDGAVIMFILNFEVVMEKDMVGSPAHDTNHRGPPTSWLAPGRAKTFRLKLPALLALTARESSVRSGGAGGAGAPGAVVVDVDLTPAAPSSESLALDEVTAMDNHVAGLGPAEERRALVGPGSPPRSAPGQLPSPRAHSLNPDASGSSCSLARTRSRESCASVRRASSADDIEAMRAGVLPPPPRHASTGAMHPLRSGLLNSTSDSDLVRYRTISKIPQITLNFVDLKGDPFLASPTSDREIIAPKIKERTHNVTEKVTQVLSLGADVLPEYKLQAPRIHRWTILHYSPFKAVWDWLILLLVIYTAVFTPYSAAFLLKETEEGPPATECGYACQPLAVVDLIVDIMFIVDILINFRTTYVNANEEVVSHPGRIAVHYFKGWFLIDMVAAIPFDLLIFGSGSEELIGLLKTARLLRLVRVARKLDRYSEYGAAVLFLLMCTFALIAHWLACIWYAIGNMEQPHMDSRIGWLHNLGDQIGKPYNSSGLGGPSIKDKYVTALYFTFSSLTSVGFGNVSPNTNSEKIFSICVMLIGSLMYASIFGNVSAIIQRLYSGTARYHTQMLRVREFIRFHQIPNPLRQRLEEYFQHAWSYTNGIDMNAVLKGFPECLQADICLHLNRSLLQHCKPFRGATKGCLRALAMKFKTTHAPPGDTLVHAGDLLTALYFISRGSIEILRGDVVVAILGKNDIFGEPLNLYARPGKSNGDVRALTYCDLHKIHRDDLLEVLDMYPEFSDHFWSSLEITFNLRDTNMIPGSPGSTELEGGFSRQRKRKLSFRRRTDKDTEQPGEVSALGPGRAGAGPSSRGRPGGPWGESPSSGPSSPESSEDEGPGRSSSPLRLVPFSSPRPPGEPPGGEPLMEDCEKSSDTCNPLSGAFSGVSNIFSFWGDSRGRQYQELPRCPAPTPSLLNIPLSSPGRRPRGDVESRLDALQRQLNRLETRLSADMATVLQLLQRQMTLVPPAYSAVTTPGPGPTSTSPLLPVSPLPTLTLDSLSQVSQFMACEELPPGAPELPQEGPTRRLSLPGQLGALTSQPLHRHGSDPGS
# protocol_text: primary screen, population patch clamp on CHO cells stably expressing hERG; higher = less effect of the substance
Out of some 310,000 compounds screened, about 14,000 (4.5%) showed an effect of 50% or more. The effect is printed as a negative number. Only a selection was taken, and strong results are over-represented in it overall.
parameter: hERG current change (%, negative = inhibition) at 10uM (%)

INSERT INTO results (compound, unit_tag, measured_number) VALUES
  ('CCn1c(=N)n(CC(O)c2cccs2)c2ccccc21.Cl (stereo not shown)', '%', -60.4),
  ('Cl.Cn1c(=N)n(CC(O)c2cccc3ccccc23)c2ccccc21 (stereo not shown)', '%', -67),
  ('C/C=C/c1ccc(OCC(O)CN(C)Cc2ccc(SC)cc2)c(OC)c1.O=C(O)C(=O)O (stereo not shown)', '%', -71.2),
  ('O=S(=O)(c1ccc(SCCO)nc1)N1CCOCC1', '%', -2),
  ('COc1cc(/C=C/C(=O)OCC(=O)NCc2ccco2)ccc1OC(F)F', '%', 6.87),
  ('Br.Cn1c(=N)n(CC(=O)O)c2ccccc21', '%', -5.99),
  ('C/C=C/c1ccc(OCCCCOc2ccc(OC)cc2)c(OC)c1', '%', -7.09),
  ('Cl.Cn1c(=N)n(CC(O)c2ccccc2)c2ccccc21 (stereo not shown)', '%', -26.3),
  ('COc1cccc(C(O)Cc2nc3ccccc3n2C)c1OC (stereo not shown)', '%', 23.7),
  ('COc1cc(/C=C/C(=O)N(Cc2ccccc2)c2ccccn2)cc(OC)c1OC', '%', -23.2),
  ('O=C1C2CCCN2C(c2ccc(Cl)c(Cl)c2)N1c1ccccn1 (stereo not shown)', '%', -10),
  ('Cn1c(-c2ccc(N)cc2)nc2ccccc21', '%', -3.42),
  ('O=C(CSc1nnc(COc2ccccc2Cl)o1)NC(=O)NCc1ccco1', '%', -8.18),
  ('CCCn1c(C(O)c2ccc(C)cc2)nc2ccccc21 (stereo not shown)', '%', 15.8),
  ('C/C(=N/NC(=O)CNC(=O)c1ccco1)c1ccc(Cl)cc1', '%', -1.47),
  ('Cc1ccc(S(=O)(=O)N2CCN3CCCC3C2)cc1 (stereo not shown)', '%', -6.76),
  ('COc1ccc(OCC(=O)N2CCN(c3nnc(-c4ccc(C)cc4)c4ccccc34)CC2)cc1', '%', -44.9),
  ('O=C(CSc1ncn[nH]1)N1CCN(c2nnc(-c3ccccc3)c3ccccc23)CC1', '%', -0.967),
  ('COc1ccc(/C=C/C(=O)OCC(=O)NCc2ccco2)cc1OC', '%', -72),
  ('COc1ccc(NS(=O)(=O)c2cc(-c3cnc(C4CC4)o3)ccc2C)cc1', '%', 6.02),
  ('C/C=C/c1ccc(OCCCCN2CCC(C)CC2)c(OC)c1', '%', -68.1),
  ('COc1ccc(-c2nnc(N3CCCCC3)c3ccccc23)cc1', '%', -47.3);

* * *

# target: human ether-à-go-go-related gene (hERG) potassium channel (human, UniProt Q12809);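 note: peak tail current of the secondary pulse compared with the same well before compound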
# protocol_text: primary screen, population patch clamp on CHO cells stably expressing hERG; higher = less effect of the substance
# Description: Briefly, Chinese hamster ovary (CHO) cells stably expressing the hERG channel were dislodged from tissue culture flasks and dispensed into PPC plates. […] During the recording, background leak currents were estimated by a 100 ms step to -80 mV from an initial holding potential of -70 mV and subtracted from the subsequent current measurement. The campaign was conducted in two phases using slight differences in recording protocol. […]
The campaign covered roughly 310,000 compounds. About 14,000 (4.5%) showed an effect of 50% or more. Effects have a minus sign here. Many of the other results were omitted from the sample, so strong results are more common in it than they were.
parameter: hERG current change (%, negative = inhibition) at 10uM (%)

INSERT INTO assay_data (molecule, unit_tag, measured_number) VALUES
  ('CCOC(=O)c1c(C)n(CC(O)CN(CC)CC)c2cc(Br)c(OC)cc12.Cl (stereo not drawn)', '%', -26.9),
  ('O=C(/C=C\c1ccc2c(c1)OCO2)CC1(O)C(=O)Nc2ccccc21 (stereo not drawn)', '%', -0.111),
  ('CC(C)Oc1cccc(C(=O)NC(=S)Nc2ccc3c4c(cccc24)CC3)c1', '%', 14.9),
  ('COc1cccc(-c2cc(C(=O)Nc3ccccc3)c3ccccc3n2)c1', '%', 8.07),
  ('CCOC(=O)c1c(CN2CCOCC2)n(-c2ccccc2)c2cc(Br)c(OC)cc12', '%', 3.27),
  ('Cc1ccc(C)c(-c2cc(C(=O)Nc3cccc(C(=O)O)c3)c3ccccc3n2)c1', '%', 20.3),
  ('COc1cccc(CNC(=O)C2CCN(S(=O)(=O)N3CCC(C)CC3)CC2)c1', '%', -3.44),
  ('COC(=O)c1c(-c2ccc(F)cc2)csc1NC(=O)c1ccco1', '%', 22.9),
  ('C/C(=N\NC(=O)Cc1ccccc1)c1cccnc1', '%', 15.3),
  ('O=C(NCc1ccco1)C1CCN(c2nc3ccccc3n2Cc2ccccc2F)CC1', '%', -66.2),
  ('O=C(CSc1cn(Cc2cccc(F)c2)c2ccccc12)NCc1ccc(F)cc1', '%', 9.86),
  ('COc1ccc(-c2ccc(Nc3ccc(C(=O)N4CCOCC4)cc3)nn2)cc1OC', '%', -5.3),
  ('O=C(NCc1ccco1)C1CCN(C(=O)c2cc3sccc3n2Cc2ccc(Cl)cc2)CC1', '%', -64.8),
  ('O=C1COc2ccc(C(=O)COC(=O)c3ncc(Cl)c(Cl)c3Cl)cc2N1', '%', 36.6),
  ('CCn1c(C(=O)N2CCC(C(=O)N3CCN(c4ccccn4)CC3)CC2)cc2sccc21', '%', -60.5),
  ('CCOC(=O)c1c(C)n(CC(O)CN(C)C)c2cc(Br)c(OC)cc12.Cl (stereo not drawn)', '%', -51.5),
  ('O=C(CSc1ncn(-c2ccccc2)n1)c1cccs1', '%', -3.5),
  ('COc1ccc(CCN(Cc2cccs2)S(=O)(=O)c2ccc(S(=O)(=O)N(C)C3CCCCC3)cc2)cc1OC', '%', 2.56),
  ('CCCCc1cc(=O)oc2cc(C)cc(OCC(=O)NCC3CCC(C(=O)O)CC3)c12 (stereo not drawn)', '%', -1.21),
  ('CCOC(=O)c1c(CN2CCN(CCO)CC2)n(-c2ccccc2)c2cc(Br)c(O)cc12', '%', -68.2),
  ('O=C(NS(=O)(=O)Nc1ccccn1)c1c[nH]c2ccccc12', '%', 15.4),
  ('COc1cccc(-c2cc(C(=O)NC3CC3)c3ccccc3n2)c1', '%', -51.2),
  ('CN(C(=O)/C=C/c1ccc2c(c1)OCO2)c1ccccc1', '%', -4.59),
  ('Cc1cc(C)nc(N2CCC(C(=O)NCc3ccccc3F)CC2)n1', '%', 27),
  ('CCOC(=O)c1c(CN(C)C)n(-c2ccccc2)c2cc(Br)c(OC)cc12', '%', -58.6),
  ('Cn1c(C(=O)N2CCCC(C(=O)NCc3cccs3)C2)cc2sccc21 (stereo not drawn)', '%', -16.1),
  ('CC(C)CC(=O)Nc1ccccc1-c1nnn(CC(=O)N2CCOCC2)n1', '%', -2.78),
  ('COc1ccc(-c2cc(C(=O)NC3CC3)c3ccccc3n2)cc1', '%', -64.5),
  ('C/C(=N\NC(=O)c1nnn(-c2nonc2N)c1CSc1ccccc1)c1ccc2c(c1)OCO2', '%', 17.5),
  ('CCN1CCN(C(=O)C2CCN(C(=O)c3cc4sccc4n3CC)CC2)CC1', '%', -2.39),
  ('COc1ccc(C=C(C#N)C#N)c(CSc2ccccn2)c1', '%', 1.19),
  ('CSc1cccc(NC(=O)CN(C2CCCCC2)S(C)(=O)=O)c1', '%', -7.59),
  ('COC(=O)c1cn(NC(=O)C2CCC(C(C)(C)C)CC2)c(=O)c2ccccc12 (stereo not drawn)', '%', 13.7),
  ('CCOC(=O)c1c(CN(C)C)n(-c2ccc(C)cc2)c2cc(Br)c(O)cc12', '%', -35.8),
  ('C/C(=N\NC(=O)COc1ccccc1-c1ccccc1)c1ccccn1', '%', -6.93),
  ('COc1cccc(-c2cc(C(=O)NC3CCCC3)c3ccccc3n2)c1', '%', -36.8),
  ('CCOC(=O)c1c(C)n(-c2ccccc2)c2ccc(OCCN(C)C)cc12', '%', -10.6),
  ('Cc1cc2cc(CCNC(=O)C(C)C)c(=O)[nH]c2cc1C', '%', 2.03),
  ('COc1nc(OC)nc(N2CCC(C(=O)NCc3ccco3)CC2)n1', '%', -18.3);
